Measured log10 IC50 of individual entries
measured.target: KRAS-G12D and SOS1 (Homo sapiens, UniProt P01116, G12D)
Sequence (P01116 1-188 isoform P01116-2 G12D): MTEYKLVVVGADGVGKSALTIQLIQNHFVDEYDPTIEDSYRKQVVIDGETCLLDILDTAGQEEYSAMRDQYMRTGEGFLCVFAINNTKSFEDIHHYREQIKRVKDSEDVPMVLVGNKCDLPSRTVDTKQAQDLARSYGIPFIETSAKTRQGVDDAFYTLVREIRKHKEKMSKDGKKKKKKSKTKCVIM
protocol.description: Inhibition of KRAS-G12D/SOS1 binding (Cisbio binding kit, 665/615 ratio), Effect Embodiment A
assay.conditions: read-out: GTP-KRAS-G12D:SOS1 IC50
Structures can show the parent of a compound that is named as a salt.
measurement.label: log10 IC50 (log10 of the value in nM)

molecule	measurement.label	assay.result
CN(C)C1CN(c2nc(N=S3(=O)CCC(N)CC3)c3cc(Cl)c(-c4cc(O)cc5ccccc45)c(F)c3n2)C1 (single isomer, unassigned) [Compound 72b]	log10 IC50	5.19
CN(C)CCCCOc1nc(N2CC3CCC(C2)N3)c2cc(Cl)c(-c3cc(O)cc4ccccc34)c(F)c2n1 (single isomer, unassigned) [Compound 60a]	log10 IC50	1.80
Oc1cc(-c2c(Cl)cc3c(N4CC5CCC(C4)N5)nc(OC[C@@H]4CCCN4CC4CC4)nc3c2F)c2ccccc2c1 [Compound 172, dihydrochloride]	log10 IC50	1.29
Oc1cc(-c2c(Cl)cc3c(N4CC5CCC(C4)N5)nc(OCC(F)CN4CCCC4)nc3c2F)c2ccccc2c1 (single isomer, unassigned) [Compound 109b, hydrochloride]	log10 IC50	1.76
Oc1cc(-c2c(Cl)cc3c(N4CC5CCC(C4)N5)nc(OCCN4CCCC4)nc3c2F)c2ccccc2c1 (single isomer, unassigned) [Compound 116, dihydrochloride]	log10 IC50	1.82

----------
measured.target: KRAS_G12D and cRAF (Homo sapiens, UniProt P01116, G12D)
protocol.description: Inhibition of KRAS_G12D/cRAF binding (Cisbio binding kit, 665/615 ratio), Effect Embodiment B
assay.conditions: read-out: GTP-KRAS-G12D:CRAF IC50
pIC50: −log10 of the molar value. Counter-ions that a name gives are not always drawn.
Quick rule: pIC50 of at least 7 means y, below that means n.

molecule	measured.target	classification
CN(C)C1CN(c2nc(N3CC4CC(C3)N4)c3cc(Cl)c(-c4cc(O)cc5ccccc45)c(F)c3n2)C1 (single isomer, unassigned)	KRAS_G12D and cRAF (Homo sapiens, UniProt P01116, G12D)	n
C=CCN1CCC[C@H]1COc1nc(N2CC3CCC(C2)N3)c2cc(F)c(-c3cc(O)cc4ccc(F)c(CC)c34)c(F)c2n1 (single isomer, unassigned) [Compound 287a, dihydrochloride]	KRAS_G12D and cRAF (Homo sapiens, UniProt P01116, G12D)	y
Cn1cnc(Cn2ccc3ccc(CNCc4[nH]c5ccccc5c4[C@H]4NC(=O)c5ccc(O)cc54)cc32)c1 [BI-2852, reference compound]	KRAS_G12D and cRAF (Homo sapiens, UniProt P01116, G12D)	n
CN(C)C1CN(c2nc(N3CCNCC3)c3cc(Cl)c(-c4cc(O)cc5ccccc45)c(F)c3n2)C1 (single isomer, unassigned) [Comparative embodiment a, reference compound]	KRAS_G12D and cRAF (Homo sapiens, UniProt P01116, G12D)	n
C[C@@H](COc1nc(N2CC3CCC(C2)N3)c2cc(Cl)c(-c3cc(O)cc4ccccc34)c(F)c2n1)CN1CCOC2(CC2)C1 (single isomer, unassigned)	KRAS_G12D and cRAF (Homo sapiens, UniProt P01116, G12D)	y
CN(C)C1CN(c2nc(N3C[C@H]4CC[C@@H](C3)N4)c3cc(Cl)c(-c4cc(O)cc5ccccc45)c(F)c3n2)C1 (single isomer, unassigned)	KRAS_G12D and cRAF (Homo sapiens, UniProt P01116, G12D)	n
Oc1cc(-c2c(Cl)cc3c(N4CC5CCC(C4)N5)nc(OC[C@@]45CCCN4C[C@H](F)C5)nc3c2F)c2ccccc2c1 (single isomer, unassigned)	KRAS_G12D and cRAF (Homo sapiens, UniProt P01116, G12D)	y
Oc1cc(-c2c(Cl)cc3c(N4CC5CCC(C4)N5)nc(OCCCN4CCOC5(CC5)C4)nc3c2F)c2ccccc2c1 (single isomer, unassigned)	KRAS_G12D and cRAF (Homo sapiens, UniProt P01116, G12D)	n
CN1CC2(CC2)C[C@H]1COc1nc(N2C[C@H]3CC[C@@H](C2)N3)c2cc(Cl)c(-c3cc(O)cc4ccccc34)c(F)c2n1 (single isomer, unassigned) [Compound 167, dihydrochloride]	KRAS_G12D and cRAF (Homo sapiens, UniProt P01116, G12D)	y
Oc1cc(-c2c(Cl)cc3c(N4CC5CCC(C4)N5)nc(OCC45CCCN4CCC5)nc3c2F)c2ccccc2c1 (single isomer, unassigned) [Compound 58a]	KRAS_G12D and cRAF (Homo sapiens, UniProt P01116, G12D)	y
C[C@H](COc1nc(N2CC3CCC(C2)N3)c2cc(Cl)c(-c3cc(O)cc4ccccc34)c(F)c2n1)CN(C)C (single isomer, unassigned)	KRAS_G12D and cRAF (Homo sapiens, UniProt P01116, G12D)	n
